System: wheat (Triticum aestivum)
ASSAY_NOTES: Test A pre-/postemergence greenhouse herbicide test, visual injury rating 0-100
Assay type: in vivo
RUN_PARAMETERS: Postemergence, 500 g ai/ha
Listed molecules paired with reported Plant response rating (0 to 100 scale), Wheat
OBSERVABLE: Plant response rating (0 to 100 scale), Wheat

INSERT INTO assay_data (molecule, value_observed) VALUES
  ('C=CCn1cc(C(=O)c2cccnc2)c(-c2cc(Cl)cc(Cl)c2)n1 [Compound 8]', 0),
  ('CCn1cc(C(=O)c2cccs2)c(-c2cc(F)cc(Cl)c2)n1 [Compound 24]', 0),
  ('Clc1cc(Cl)cc(-c2n[nH]cc2C2(c3ccccc3)SCCCS2)c1 [Compound 63]', 0),
  ('CCn1cc(C(=O)c2cccnc2)c(-c2cc(Cl)cc(Cl)c2)n1 [Compound 7]', 0),
  ('N#CCn1cc(C(=O)c2ccccc2)c(-c2cc(Cl)cc(Cl)c2)n1 [Compound 43]', 0),
  ('O=C(c1ccccc1)c1cn(S(=O)(=O)C(F)(F)F)nc1-c1cc(Cl)cc(Cl)c1 [Compound 2]', 0),
  ('O=C(c1ccccc1)c1cn(C(=O)Cc2ccccc2)nc1-c1cc(Cl)cc(Cl)c1 [Compound 4]', 0),
  ('CC(=O)Cn1cc(C(=O)c2ccccc2)c(-c2cc(Cl)cc(Cl)c2)n1 [Compound 45]', 0),
  ('O=C(c1ccccc1)c1cn(S(=O)(=O)CCl)nc1-c1cc(Cl)cc(Cl)c1 [Compound 1]', 0);

###

Here the recorded Plant response rating, Foxtail, Giant is given for each entry.
Tested on: giant foxtail (Setaria faberii)
ASSAY_NOTES: Test C pre-/postemergence greenhouse test, plant response rating 0-100
Assay type: in vivo
RUN_PARAMETERS: Postemergence, 250 g ai/ha; scale 0 to 100
Excerpt: […]
OBSERVABLE: Plant response rating, Foxtail, Giant

INSERT INTO assay_data (item_smiles, observable, value_observed) VALUES
  ('C=CCn1cc(C(=O)c2ccccc2)c(-c2cc(Cl)cc(Cl)c2)n1', 'Plant response rating, Foxtail, Giant', 5),
  ('CCn1cc(C(=O)c2cccs2)c(-c2cc(Cl)cc(Cl)c2)n1', 'Plant response rating, Foxtail, Giant', 15),
  ('O=C(c1ccccc1)c1cn(S(=O)(=O)C(F)(F)F)nc1-c1cc(Cl)cc(Cl)c1', 'Plant response rating, Foxtail, Giant', 0),
  ('Fc1cccc(NN=C(c2ccccc2)c2c[nH]nc2-c2cc(Cl)cc(Cl)c2)c1', 'Plant response rating, Foxtail, Giant', 0),
  ('CCOC(OCC)(c1cccs1)c1c[nH]nc1-c1cc(Cl)cc(Cl)c1', 'Plant response rating, Foxtail, Giant', 0);

###

Test system: woolly cupgrass (Eriochloa villosa)
ASSAY_NOTES: Test C postemergence greenhouse test, plant response rating 0-100
Format: in vivo
RUN_PARAMETERS: 31 g ai/ha
# Plant response rating (0 to 100), Cupgrass, Woolly per record follows
OBSERVABLE: Plant response rating (0 to 100), Cupgrass, Woolly

INSERT INTO results (item_smiles, study_system, value_observed) VALUES
  ('Cn1cc(C(=O)c2ccccc2)c(-c2cc(Cl)cc(Cl)c2)n1', 'woolly cupgrass (Eriochloa villosa)', 0),
  ('C=CCn1cc(C(=O)c2ccccc2)c(-c2cc(Cl)cc(Cl)c2)n1', 'woolly cupgrass (Eriochloa villosa)', 0),
  ('CCCn1cc(C(=O)c2ccccc2)c(-c2cc(Cl)cc(Cl)c2)n1', 'woolly cupgrass (Eriochloa villosa)', 5),
  ('CCn1cc(C(=O)c2ccccc2)c(-c2cc(Br)cc(Br)c2)n1', 'woolly cupgrass (Eriochloa villosa)', 0),
  ('CCn1cc(C(=O)c2ccccc2)c(-c2cc(Cl)cc(Cl)c2)n1', 'woolly cupgrass (Eriochloa villosa)', 5);
